Ref: PubChem BioAssay (NCI)

Tested on: M14 melanoma
MEASUREMENT PROTOCOL: NCI tumour cell line growth inhibition, 48 h
*1 amine or outer side, *2 acyl side, *3 side chain or, on linkers, in order; H or OH if unused. Where a SMILES comes first, the peptide text is derived from it. Bridges are numbered along the chain shown (N, C = ends). [ ]: non-standard residue; d: D form. The star is where a group is joined. Phe(3-Me) = Cc1cccc(C[C@H](N)C(=O)O)c1; NH(4-Cl-2-F-phenyl) = Fc1cc(Cl)ccc1N*; Pro(4R-Me) = C[C@H]1CN[C@H](C(=O)O)C1; Hyp = O=C(O)[C@@H]1C[C@@H](O)CN1; aThr = C[C@H](O)[C@H](N)C(=O)O; Pip = O=C(O)[C@@H]1CCCCN1; CO = O=C([*:1])[*:2]
EXPERIMENTAL ENDPOINT: GI50

Check out these entries, answers already filled in.
1. N#CSCC1CC(O)(c2ccccc2)C(c2ccccc2)C(c2ccc(F)cc2)O1 (configuration not stated)
1.84 µM
2. O=C(N/N=C/c1ccc(O)cc1O)c1ccc(Nc2ccnc(C(F)(F)F)c2)cc1
> 100 µM
3. CCC(C)/C=C(C)/C=C/C(=O)c1c(O)c(-c2ccc(O)cc2)c[nH]c1=O (configuration not stated)
6.58 µM
4. Cc1cccc(C[C@H](NC(=O)Nc2ccc(Cl)cc2F)C(=O)N[C@@H]2C(=O)N3C[C@H](O)C[C@H]3C(=O)N3CCCC[C@H]3C(=O)N[C@@H](C)C(=O)N3C[C@H](C)C[C@H]3C(=O)O[C@H]2C)c1 ({NH(4-Cl-2-F-phenyl)-CO}-[Phe(3-Me)][aThr][Hyp][Pip]A[Pro(4R-Me)]; ester 2-C)
0.487 µM
5. COc1cc(-c2cn(-c3ccc(Cl)cc3)c(=O)[nH]2)cc(OC)c1OC
> 100 µM

Problem: Request the reported GI50 associated with Cc1ccc(NC2=C(Sc3ccc(Cl)cc3)C(=O)N(Cc3ccccc3)C2=O)cc1Cl
Solution: 3.88 µM

Problem: Moving on to Cc1cc(S(=O)(=O)NC#N)c(S/C(=N\Nc2ccc([N+](=O)[O-])cc2)c2ccccc2)cc1Cl
Solution: 18.1 µM
